System: P. falciparum Dd2 (PfLuc) line expressing firefly luciferase, asexual blood stage
Method: microbe, parasite or virus in culture
Assay type: cell-based, Plasmodium falciparum
Cond: Plasmodium falciparum, DD2, read-out: CDD P. falciparum Luciferase ABS 11-pt Reconfirmation Dose Response (48hr): IC50 (μM); 11-pt dose response, 48hr
Reported Endpoint: IC50

Requested read-out: IC50. Entry: "Cc1cc(Br)cnc1NCCN1CCC(N(C)C)CC1" 7.01 µM

Would you kindly repeat that for O=C(CCN1CCCC1c1cccc2c1OCCO2)N1CCCCC1 (stereo not shown) ? 6.96 µM

Would you kindly repeat that for NCC1CCN(C2CCN(c3ccc(-c4ccco4)cc3)CC2)C1 (stereo not shown) ? 3 µM

Would you kindly repeat that for "Fc1ccccc1Cn1c(C2CCNCC2)cc2cccnc21" ? 3.02 µM

----------
Method: HepG2 cytotoxicity screening (CellTiter-Glo)
Cond: human, uninfected HepG2-A16-CD81 (EGFP) hepatocytes
pIC50: −log10 of the molar value.
Record form. Attribute: pIC50. Fill in for each entry.

Requested read-out: pIC50. Entry: CCc1cnc(N)nc1NC(C)c1ccc(C)c(C)c1 (stereo not drawn) [UCSD-0831195] < 4.60

Would you kindly repeat that for CC1(c2ccccc2)CCCN(Cc2cncn2C2CCCC2)C1 (stereo not drawn) [UCSD-0827293] ? 4.73

Would you kindly repeat that for CC(=O)Nc1ccc(-n2ccc3nc(N4CCCC4)ncc3c2=O)cc1 [UCSD-0795240] ? < 4.60

----------
Tested on: P. falciparum Dd2 (PfLuc) line expressing firefly luciferase, asexual blood stage
Method: microbe, parasite or virus in culture
Format: cell-based, Plasmodium falciparum
Cond: Plasmodium falciparum, DD2; 11-pt dose response, 96hr; read-out: CDD P. falciparum Luciferase ABS 11-pt Reconfirmation Dose Response (96hr): Maximum inhibition (%)
Reported Endpoint: Emax (%)
Report only the number, with the unit % understood.

Checklist item: Emax tested on P. falciparum Dd2 (PfLuc) line expressing firefly luciferase, asexual blood stage, entry COc1cccc(CNc2cc(C)nc(-c3ccncc3)n2)c1OC [DDD01073393] , value? 98.2

Would you kindly repeat that for COc1ccc(C(=O)NCCCOC(C)c2ccccc2)c(OC)c1 (centres unmarked) [DDD01071935] ? 90.2

Would you kindly repeat that for c1cc(-c2n[nH]cc2-c2ccnc(N3CCCC3)n2)ccn1 [DDD01235828] ? 92

Would you kindly repeat that for CC(NCC1CCN(CCO)CC1)c1ccc(Cl)cc1 (centres unmarked) [DDD01073718] ? 98.2

Would you kindly repeat that for CC(C)N1CCC2(CCCN(c3nccc(C(F)(F)F)n3)C2)CC1 [DDD01028790] ? 91.1

Would you kindly repeat that for Cc1cccc2[nH]c(-c3cn(C4CCNCC4)nn3)nc12 [DDD01250141] ? 97.2

Would you kindly repeat that for CC(C)Nc1cc(-c2c[nH]nc2C2CCN(C(=O)C3CCC3)C2)ccn1 (centres unmarked) [DDD01057307] ? 95.8

Would you kindly repeat that for CCC1CN(CC(=O)NCCN2CCCCC2)c2ccccc2S1 (centres unmarked) [DDD01025850] ? 83.2

Would you kindly repeat that for Cc1cccc(C)c1Nc1noc2c1CN(C(=O)c1c[nH]nc1C)CC2 [DDD01056871] ? 96.9

Would you kindly repeat that for Cc1cccc(OC(C)C(=O)NCC2(N(C)C)CCCC2)c1 (centres unmarked) [DDD01069466] ? 85.7

Would you kindly repeat that for Oc1ccc(Cl)cc1CNCc1ccccc1Cl [DDD01038243] ? 88.4

Would you kindly repeat that for Cc1cccc(C)c1Nc1noc2c1CN(C(=O)c1ccnn1C)CC2 [DDD01056796] ? 101

Would you kindly repeat that for CN(Cc1nccs1)c1nc(-c2ccccn2)nc2c1CCNCC2 [DDD01258014] ? 98

Would you kindly repeat that for Cc1cc(CN2CCC(CNS(=O)(=O)c3ccc(Br)s3)CC2)c(C)o1 [DDD01027665] ? 95

Would you kindly repeat that for OC1(CN2CCC(Oc3cccc(C(F)(F)F)c3)CC2)CCNC1 (centres unmarked) [DDD01245291] ? 99.5

Would you kindly repeat that for CC(NCCN1CCC(N(C)C)CC1)c1ccc(Cl)s1 (centres unmarked) [DDD01077862] ? 97.3

Would you kindly repeat that for COc1ccc(C)cc1CN1CCC(c2cc3ncccc3cn2)CC1 [DDD01058767] ? 100

Would you kindly repeat that for Cc1nn(C)cc1C1=NS(=O)(=O)N(C)C(C(=O)Nc2ccc(Br)cc2)=C1 [DDD01058697] ? 101

Would you kindly repeat that for Cc1ccc(CNC(CN2CCN(C)CC2)c2ccccc2)cc1 (centres unmarked) [DDD01079898] ? 98.8

Would you kindly repeat that for COc1cccc(CN(C)Cc2[nH]c3ccccc3c2C)c1O [DDD01247848] ? 98.6

Would you kindly repeat that for CN(Cc1cccc(O)c1)CC1CCCN(CCc2ccc(Cl)cc2)C1 (centres unmarked) [DDD01257948] ? 99.5

Would you kindly repeat that for O=C(Nc1nccs1)C1CCCN1Cc1ccccn1 (centres unmarked) [DDD01068868] ? 99.3

Would you kindly repeat that for CC(C)(C)CNCC1(O)CCCN(Cc2ccccc2F)C1=O (centres unmarked) [DDD01250810] ? 80.8

Would you kindly repeat that for c1ccn2c(C3CCCN(c4ncnc5c4CCNC5)C3)nnc2c1 (centres unmarked) [DDD01252518] ? 97.6

Would you kindly repeat that for Cc1nc(-c2ccc(F)c(F)c2)cc(C2CCNCC2)n1 [DDD01058356] ? 86.7

Would you kindly repeat that for OC(CNCc1ccccc1C(F)(F)F)c1ccccc1 (centres unmarked) [DDD01254021] ? 97.4

Would you kindly repeat that for OCCN1CCC(CNCc2ccc(Br)cc2)CC1 [DDD01072406] ? 99.6

Would you kindly repeat that for c1cc2c(cc1C1(CNC3=NCCN3)CCCC1)OCCO2 [DDD01067440] ? 92

Would you kindly repeat that for CC(C)(C)C(=O)N1C[C@H](c2ccsc2)[C@H]2CN(C3CCCCC3)CC[C@H]21 [DDD01058940] ? 90.2
